targetEntity: T1, human GLP-1 receptor (human), P43220
T1 chain: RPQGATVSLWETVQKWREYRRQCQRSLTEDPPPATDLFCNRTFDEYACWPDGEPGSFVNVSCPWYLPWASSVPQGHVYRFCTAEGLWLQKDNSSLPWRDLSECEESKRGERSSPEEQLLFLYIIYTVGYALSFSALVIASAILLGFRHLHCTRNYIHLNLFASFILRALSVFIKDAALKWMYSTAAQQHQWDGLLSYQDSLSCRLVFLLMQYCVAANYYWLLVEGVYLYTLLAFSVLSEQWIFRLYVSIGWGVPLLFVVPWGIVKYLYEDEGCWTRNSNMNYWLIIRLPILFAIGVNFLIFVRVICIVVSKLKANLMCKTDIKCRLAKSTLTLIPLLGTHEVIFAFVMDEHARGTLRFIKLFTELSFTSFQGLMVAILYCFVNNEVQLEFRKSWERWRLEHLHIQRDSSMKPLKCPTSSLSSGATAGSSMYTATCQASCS
protocolSummary: cell-based or functional assay
Where no end group is shown, it is not given here.
EC50 Relative to Val^8-GLP-1(7-37)OH (relative to Val^8-GLP-1(7-37)OH) under 3 gets criterion met, anything at or over 3 gets criterion not met.

{"binder": "HVEGTFTSDYSSYLEGQAAKEFIAWLVKGRG-OH [Val^8-Tyr^16-GLP-1(7-37)OH]", "classification": "criterion met"}
{"binder": "HVEGTFTSDLSSYLEEQAAKEFIAWLVKGRG-OH [Val^8-Leu^16-Glu^22-GLP-1(7-37)OH]", "classification": "criterion not met"}
{"binder": "HVEGTFTSDFSSYLEEQAAKEFIAWLVKGRG-OH [Val^8-Phe^16-Glu^22-GLP-1(7-37)OH]", "classification": "criterion met"}
{"binder": "HVEGTFTSDYSSFLEGQAAKEFIAWLVKGRG-OH [Val^8-Tyr^16-Phe^19-GLP-1(7-37)OH]", "classification": "criterion met"}
{"binder": "HVEGTFTSDWSSYLEEQAVKEFIAWLIKGRG-OH [Val^8-Trp^16-Glu^22-Val^25-Ile^33-GLP-1(7-37)OH]", "classification": "criterion not met"}
{"binder": "HVEGTFTSDYSSWLEEQAAKEFIAWLVKGRG-OH [Val^8-Tyr^16-Trp^19-Glu^22-GLP-1(7-37)OH]", "classification": "criterion not met"}
{"binder": "HVDGIFTSDYSSYLEEQAAKEFIAWLVKGRG-OH [Val^8-Asp^9-Ile^11-Tyr^16-Glu^22-GLP-1(7-37)OH]", "classification": "criterion not met"}
{"binder": "HVEGTFTSDVSSYLEGQAAKEFIEWLVKGRG-OH [Val^8-Glu^30-GLP-1(7-37)OH]", "classification": "criterion met"}
{"binder": "HVEGTWTSDVSSYLEEQAAKEFIAWLVKGRG-OH [Val^8-Trp^12-Glu^22-GLP-1(7-37)OH]", "classification": "criterion met"}
{"binder": "HVEGTFTSDVSIYLEEQAAKEFIAWLVKGRG-OH [Val^8-Ile^18-Glu^22-GLP-1(7-37)OH]", "classification": "criterion not met"}
{"binder": "HVEGTFTSDVSSYLEEQAAKAFIAWLVKGRG-OH [Val^8-Glu^22-Ala^27-GLP-1(7-37)OH]", "classification": "criterion met"}
{"binder": "HVEGTYTSDVSSYLEEQAAKEFIAWLVKGRG-OH [Val^8-Tyr^12-Glu^22-GLP-1(7-37)OH]", "classification": "criterion met"}
{"binder": "HVEGTFTSDVSSYLEEQALKEFIAWLVKGRG-OH [Val^8-Glu^22-Leu^25-GLP-1(7-37)OH]", "classification": "criterion met"}
{"binder": "HVEGTFTSDISSYLEEQAAKEFIAWLVKGRG-OH [Val^8-Ile^16-Glu^22-GLP-1(7-37)OH]", "classification": "criterion not met"}
{"binder": "HVEGTFTSDVSSYLEEQAAKEFIAWLVKGRH-OH [Val^8-Glu^22-His^37-GLP-1(7-37)OH]", "classification": "criterion not met"}
